System: SW480
Assay remarks: Induction of apoptosis in human SW480 cells assessed as activation of caspase activity at 20 uM after 24 hrs by CASPACE-FITC staining (reference value: 6.2%)
Format: functional
Reported Activity is given for each of the following molecules.
Just the number please, in %, no unit attached.

[
  {
    "Molecule": "C=C1C(=O)[C@]23CC[C@H]1C[C@H]2[C@@]12CCC[C@@](C)(CN(CCO)C1)[C@H]2C(=C)C3=O",
    "Activity [%]": 29.8
  },
  {
    "Molecule": "C=C1C(=O)[C@]23CC[C@H]1C[C@H]2[C@@]12CCC[C@@](C)(C(=O)N4CCO[C@H]41)[C@H]2C[C@H]3O",
    "Activity [%]": 60.1
  },
  {
    "Molecule": "C=C1C(=O)[C@]23CC[C@H]1C[C@H]2[C@@]12CCC[C@@](C)(CN(CCO)C1)[C@H]2CC3=O",
    "Activity [%]": 10.9
  }
]

Moving on to another molecule below.
Exercise: # lookup: Activity of C=C1C(=O)[C@]23CC[C@H]1C[C@H]2[C@@]12CCC[C@@]4(C)C5OCCN5[C@H]1O[C@@H]3C[C@@H]24 (some centres undefined)
Key: 18.2

Data provenance is ChEMBL document CHEMBL3232772.
